Entries and their half-life at 2 μM values follow.
protocol.summary: Hepatocyte stability, 1% final DMSO, 2 μM substrate (t1/2^a)
Assay type: in vitro ADME
measurement.conditions: human, cryopreserved hepatocytes, TA with 1% final DMSO, 2 μM substrate, samples at 0, 1, 2, 4 hours; read-out: human hepatocyte t½^a

Example results:
{"compound": "CC(Nc1nc(N)nc(N)c1C#N)c1nc2c(F)cccc2c(=O)n1-c1cc(F)cc(F)c1 (single isomer, unassigned) [Compound 16a]", "readout.label": "half-life at 2 μM", "measurement": "> 10 h"}
{"compound": "CC(Nc1nc(N)nc(N)c1C#N)c1nc2c(Cl)ccc(Cl)c2c(=O)n1-c1ccccc1 (single isomer, unassigned) [Compound 50a]", "readout.label": "half-life at 2 μM", "measurement": "6 to 10 h"}
{"compound": "CC(Nc1nc(N)nc(N)c1C#N)c1nc2cccc(Cl)c2c(=O)n1-c1cccc(F)c1 (single isomer, unassigned) [Compound 108a]", "readout.label": "half-life at 2 μM", "measurement": "> 10 h"}

Q: Specify reported half-life at 2 μM for the compound shown: CC(C)CC(Nc1nc(N)nc(N)c1C#N)c1nc2cccc(Cl)c2c(=O)n1-c1cc(F)cc(F)c1 (single isomer, unassigned) [Compound 163a]
A: 1 to 3 h

Q: Give half-life at 2 μM for the following compound: CC(Nc1nc(N)nc(N)c1C#N)c1nc2cccc(C(F)F)c2c(=O)n1-c1cc(F)cc(C(F)F)c1 (single isomer, unassigned) [Compound 99a]
A: 6 to 10 h

Q: Give me measured half-life at 2 μM, please, for this compound: CC(Nc1nc(N)nc(N)c1C#N)c1nc2c(F)ccc(F)c2c(=O)n1-c1cc(F)cc(F)c1 (single isomer, unassigned) [Compound 21a]
A: 6 to 10 h

Q: Report measured half-life at 2 μM; entry is CCC(Nc1nc(N)nc(N)c1C#N)c1nc2cccc(Cl)c2c(=O)n1-c1cc(F)cc(F)c1 (single isomer, unassigned) [Compound 78a]
A: 6 to 10 h

Q: Supply reported half-life at 2 μM belonging to this compound: CCC(Nc1nc(N)nc(N)c1C#N)c1nc2c(Cl)ccc(F)c2c(=O)n1-c1cc(F)cc(F)c1 (single isomer, unassigned) [Compound 102a]
A: 6 to 10 h

====

# maps each entry to its pIC50
target.or.test.system: PI3Kδ (Homo sapiens)
Construct: made in house
Sequence (O00329 whole entry): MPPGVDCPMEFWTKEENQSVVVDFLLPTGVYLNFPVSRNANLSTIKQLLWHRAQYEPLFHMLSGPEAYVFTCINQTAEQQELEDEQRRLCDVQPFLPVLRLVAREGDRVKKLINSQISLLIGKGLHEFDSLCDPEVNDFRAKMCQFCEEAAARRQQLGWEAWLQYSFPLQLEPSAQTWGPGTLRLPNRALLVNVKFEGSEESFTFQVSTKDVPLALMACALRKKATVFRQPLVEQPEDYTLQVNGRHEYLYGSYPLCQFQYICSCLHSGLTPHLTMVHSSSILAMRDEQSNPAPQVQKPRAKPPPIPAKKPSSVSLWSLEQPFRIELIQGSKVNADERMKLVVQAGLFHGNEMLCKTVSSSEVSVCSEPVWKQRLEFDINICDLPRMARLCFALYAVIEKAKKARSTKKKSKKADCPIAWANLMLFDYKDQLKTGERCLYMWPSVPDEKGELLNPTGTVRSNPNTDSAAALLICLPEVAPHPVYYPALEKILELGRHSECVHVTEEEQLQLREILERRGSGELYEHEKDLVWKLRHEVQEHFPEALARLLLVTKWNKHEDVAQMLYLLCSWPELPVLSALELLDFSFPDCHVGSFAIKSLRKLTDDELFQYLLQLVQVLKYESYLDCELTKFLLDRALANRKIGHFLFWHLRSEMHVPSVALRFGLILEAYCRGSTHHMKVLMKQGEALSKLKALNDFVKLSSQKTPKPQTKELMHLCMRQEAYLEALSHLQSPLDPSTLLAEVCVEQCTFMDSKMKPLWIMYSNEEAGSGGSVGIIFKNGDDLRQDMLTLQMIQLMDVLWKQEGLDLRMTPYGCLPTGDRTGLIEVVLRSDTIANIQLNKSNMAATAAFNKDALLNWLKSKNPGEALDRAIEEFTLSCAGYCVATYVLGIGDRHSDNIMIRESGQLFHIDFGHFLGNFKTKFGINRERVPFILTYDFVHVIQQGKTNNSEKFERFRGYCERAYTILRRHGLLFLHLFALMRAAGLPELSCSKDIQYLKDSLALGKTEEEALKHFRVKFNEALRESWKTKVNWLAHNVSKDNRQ
Sequence (P27986 whole entry partner): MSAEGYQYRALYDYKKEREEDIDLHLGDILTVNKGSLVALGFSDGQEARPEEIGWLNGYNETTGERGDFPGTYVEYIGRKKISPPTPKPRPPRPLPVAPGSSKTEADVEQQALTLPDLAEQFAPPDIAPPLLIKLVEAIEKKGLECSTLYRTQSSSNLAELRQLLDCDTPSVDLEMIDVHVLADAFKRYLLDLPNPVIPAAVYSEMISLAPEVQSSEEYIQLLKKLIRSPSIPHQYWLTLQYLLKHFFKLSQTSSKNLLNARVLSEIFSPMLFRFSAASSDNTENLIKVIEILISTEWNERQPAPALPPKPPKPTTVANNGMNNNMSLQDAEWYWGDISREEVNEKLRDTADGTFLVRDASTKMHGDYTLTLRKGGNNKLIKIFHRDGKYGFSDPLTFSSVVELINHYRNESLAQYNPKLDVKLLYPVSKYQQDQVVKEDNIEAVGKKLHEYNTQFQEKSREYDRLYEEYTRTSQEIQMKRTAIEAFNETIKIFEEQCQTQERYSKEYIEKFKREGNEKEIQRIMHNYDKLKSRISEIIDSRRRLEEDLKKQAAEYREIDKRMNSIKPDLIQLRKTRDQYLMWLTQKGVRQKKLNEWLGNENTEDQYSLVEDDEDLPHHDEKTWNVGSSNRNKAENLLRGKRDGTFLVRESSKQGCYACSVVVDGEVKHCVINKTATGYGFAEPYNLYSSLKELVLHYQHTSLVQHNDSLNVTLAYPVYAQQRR
protocol.summary: Enzymatic activity of PI3K isoforms, TR-FRET assay (PIP3 formation)
Format: biochemical
measurement.conditions: PI3Kδ; TR-FRET, 2×Km ATP, 10 μM PIP2; read-out: IC50
pIC50: −log10 of the molar value.

Recorded pIC50, per entry:
{"compound": "CC(Nc1nc(N)nc(N)c1C#N)c1nc2c(C#N)cccc2c(=O)n1-c1cc(F)cc(F)c1 (single isomer, unassigned) [Compound 101a]", "pIC50": "8.00 to 9.00"}
{"compound": "CC(Nc1nc(N)nc(N)c1C#N)c1nc2c(C(F)F)cccc2c(=O)n1-c1ccccc1 (single isomer, unassigned) [Compound 56a]", "pIC50": "7.30 to 8.00"}
{"compound": "CC(Nc1nc(N)nc(N)c1C#N)c1nc2cccc(Cl)c2c(=O)n1-c1cc(C(F)F)cc(C(F)F)c1 (single isomer, unassigned) [Compound 119a]", "pIC50": "8.00 to 9.00"}
{"compound": "CC(Nc1nc(N)nc(N)c1C#N)c1nc2cccc(C(N)=O)c2c(=O)n1-c1cc(F)cc(F)c1 (single isomer, unassigned) [Compound 91a]", "pIC50": "7.30 to 8.00"}
{"compound": "CC(Nc1nc(N)nc(N)c1C#N)c1nc2cccc(F)c2c(=O)n1-c1cc(Cl)cc(C(F)F)c1 (single isomer, unassigned) [Compound 114a]", "pIC50": "< 7.30"}

Q: Retrieve pIC50 measured for CC(Nc1nc(N)nc(N)c1C#N)c1nc2ccc(F)c(F)c2c(=O)n1-c1cc(F)cc(F)c1 (single isomer, unassigned) [Compound 29a] and print it.
A: 7.30 to 8.00

Q: For the compound Cc1ccc(Cl)c2c(=O)n(-c3cc(F)cc(F)c3)c(C(C)Nc3nc(N)nc(N)c3C#N)nc12 (single isomer, unassigned) [Compound 73a] , give its reported pIC50.
A: 8.00 to 9.00

Q: State its pIC50: Cc1c(F)cc(F)cc1-n1c(C(C)Nc2nc(N)nc(N)c2C#N)nc2cccc(Cl)c2c1=O (single isomer, unassigned) [Compound 200a-1]
A: 7.30 to 8.00

Q: Read off the recorded pIC50 for Cc1ccc(C(F)F)cc1-n1c(C(C)Nc2nc(N)nc(N)c2C#N)nc2cccc(Cl)c2c1=O (single isomer, unassigned) [Compound 188a-1]
A: 8.00 to 9.00

Q: Provide measured pIC50 value, entry: `C[C@H](Nc1nc(N)nc(N)c1C#N)c1nc2cccc(Cl)c2c(=O)n1-c1cc(F)cc(F)c1`
A: > 9.00

Q: // fetch pIC50 given entry Cc1ccc(Cl)c2c(=O)n(-c3ccccc3)c(C(C)Nc3nc(N)nc(N)c3C#N)nc12 (single isomer, unassigned)
A: > 9.00

Q: Consider the compound CC[C@H](C)[C@H](Nc1nc(N)nc(N)c1C#N)c1nc2cccc(Cl)c2c(=O)n1-c1cc(F)cc(F)c1 [Compound 164a] . State its measured pIC50.
A: 8.00 to 9.00
